Here, each record is paired with measured IC50 data.
Tested on: HeLa
Assay: Antiproliferative activity against human HeLa cells assessed as inhibition of cell proliferation
Type: functional, cell-based
Give just the numeric value; µM need not be written.

Here is how some compounds turned out for IC50.
1) Oc1ccc(-c2cc(-c3cccc(F)c3)cc(-c3cccc(O)c3)n2)cc1 = 14.2
2) Oc1ccc(-c2cc(-c3ccccc3OC(F)(F)F)cc(-c3ccc(O)cc3)n2)cc1 = 44.6
3) Oc1cccc(-c2cc(-c3ccc(F)cc3)cc(-c3cccc(O)c3)n2)c1 = 1.28

Please state recorded IC50 (tested on HeLa) of Oc1ccc(-c2cc(-c3ccccc3F)cc(-c3cccc(O)c3)n2)cc1
14.3
